target: Melanocyte-stimulating hormone receptor (Mus musculus, UniProt Q01727); assay: Displacement of [125I]NDP-MSH from MC1 receptor in mouse B16 cells; type: cell-based
Sequence (Q01727 whole entry): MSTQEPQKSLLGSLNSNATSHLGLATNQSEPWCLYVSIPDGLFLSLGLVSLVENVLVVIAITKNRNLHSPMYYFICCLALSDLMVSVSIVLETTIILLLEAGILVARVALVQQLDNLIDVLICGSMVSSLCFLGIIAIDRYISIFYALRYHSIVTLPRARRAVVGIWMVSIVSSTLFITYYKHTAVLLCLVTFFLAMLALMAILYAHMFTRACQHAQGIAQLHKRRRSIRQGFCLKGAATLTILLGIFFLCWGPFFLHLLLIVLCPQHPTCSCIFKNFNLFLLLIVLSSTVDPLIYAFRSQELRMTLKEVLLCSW
attribute.measured: pKi
The meaning of pKi here: minus log10 of the concentration in molar units.

Summary: C=C(Br)CN(C(=O)CCCc1c[nH]c2ccccc12)C1CCC(CC2CCC(N)CC2)CC1 (stereo in doubt; form 1) , Melanocyte-stimulating hormone receptor (Mus musculus, UniProt Q01727), pKi = 5.92

Summary: C/C(=C/c1ccccc1)CN(CCCCCN)C(=O)/C=C/c1c[nH]c2ccccc12 , Melanocyte-stimulating hormone receptor (Mus musculus, UniProt Q01727), pKi = 5.57

Summary: NCCCCN(Cc1ccccc1)C(=O)CCCc1c(Cc2ccc(O)cc2)[nH]c2ccccc12 , Melanocyte-stimulating hormone receptor (Mus musculus, UniProt Q01727), pKi = 5.11

Summary: NCCCN(C/C=C/c1ccccc1)C(=O)Cc1ccc2ccccc2c1 , Melanocyte-stimulating hormone receptor (Mus musculus, UniProt Q01727), pKi = 5.60

Summary: NC1CCC(CC2CCC(N(C/C=C/c3ccccc3)C(=O)CCCc3c[nH]c4ccccc34)CC2)CC1 (stereo not drawn) , Melanocyte-stimulating hormone receptor (Mus musculus, UniProt Q01727), pKi = 5.57

Summary: NC1CCC(CC2CCC(N(C/C(Cl)=C/c3ccccc3)C(=O)c3cc4cc(OCc5ccccc5)ccc4[nH]3)CC2)CC1 (stereo not drawn) , Melanocyte-stimulating hormone receptor (Mus musculus, UniProt Q01727), pKi = 5.38

Summary: NC1CCC(CC2CCC(N(Cc3ccncc3)C(=O)CCCc3c[nH]c4ccccc34)CC2)CC1 (stereo in doubt; form 2) , Melanocyte-stimulating hormone receptor (Mus musculus, UniProt Q01727), pKi = 5.20

Summary: COc1cc(Br)c(/C=C/CN(C(=O)CCCc2c(Cc3ccc(O)cc3)[nH]c3ccccc23)C2CCC(CC3CCC(N)CC3)CC2)cc1OC (stereo not drawn) , Melanocyte-stimulating hormone receptor (Mus musculus, UniProt Q01727), pKi = 6.03

* * *

Assignment: determine reported Ki for the given molecules.
biological target: Melanocortin receptor 3 (Homo sapiens); assay: Displacement of [125I]NDP-MSH from human recombinant MC3 receptor expressed in Sf9 cells
Sequence (P41968 whole entry): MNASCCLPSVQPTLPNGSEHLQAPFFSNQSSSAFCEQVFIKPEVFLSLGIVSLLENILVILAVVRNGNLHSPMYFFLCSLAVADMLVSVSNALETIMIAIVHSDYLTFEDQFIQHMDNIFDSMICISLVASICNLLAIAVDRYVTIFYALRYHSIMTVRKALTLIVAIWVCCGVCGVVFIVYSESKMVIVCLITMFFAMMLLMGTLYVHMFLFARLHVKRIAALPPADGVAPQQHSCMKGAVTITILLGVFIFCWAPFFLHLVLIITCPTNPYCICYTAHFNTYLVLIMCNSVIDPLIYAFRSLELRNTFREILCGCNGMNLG
Please state the number and follow it with the unit.

The recorded Ki for NCCCCCCN(Cc1ccccc1)C(=O)CCCc1c[nH]c2ccccc12 is 43 µM

The recorded Ki for N#Cc1ccc(CN(C(=O)CCCc2c(Cc3ccc(O)cc3)[nH]c3ccccc23)C2CCC(CC3CCC(N)CC3)CC2)cc1 (stereo not given) is 25 µM

The recorded Ki for NCCCCCN(C/C=C\c1ccccc1)C(=O)CCc1c(Cc2ccc(O)cc2)[nH]c2ccccc12 is 27 µM

The recorded Ki for NCCN(Cc1ccc2ccccc2c1)C(=O)c1c[nH]c2ccccc12 is 134 µM

The recorded Ki for N=C(N)NCCCN(Cc1ccc2ccccc2c1)C(=O)Cc1c[nH]c2ccccc12 is 228 µM

* * *

target: Melanocortin receptor 3 (Homo sapiens); experiment: Displacement of [125I]NDP-MSH from human recombinant MC3 receptor expressed in Sf9 cells
Assignment: determine reported Ki for the given molecules.
Output spec: scalar in µM, unitless text.

The recorded Ki for N=C(N)NC1CCC(CC2CCC(N(C/C(Cl)=C/c3ccccc3)C(=O)CCCc3c[nH]c4ccccc34)CC2)CC1 (stereo in doubt; form 2) is 13

The recorded Ki for NCCCCN(C/C=C/c1ccccc1)C(=O)CCc1c[nH]c2ccccc12 is 67

The recorded Ki for CC1CC(CC2CCC(N(Cc3ccccc3)C(=O)CCCc3c[nH]c4ccccc34)C(C)C2)CCC1N (stereo in doubt; form 2) is 22

The recorded Ki for NCCCCCN(Cc1ccc2c(c1)OCO2)C(=O)CCCc1c[nH]c2ccccc12 is 38

The recorded Ki for CCC(c1ccccc1)N(CCCCN)C(=O)CCc1c[nH]c2ccccc12 (centres undefined) is 38

The recorded Ki for CC(C)N(CCCCN)C(=O)c1c[nH]c2ccccc12 is 112

The recorded Ki for COc1cc(Cl)c(CN(C(=O)CCCc2c[nH]c3ccccc23)C2CCC(CC3CCC(N)CC3)CC2)cc1OC (stereo in doubt; form 1) is 24

The recorded Ki for Cc1ccccc1CN(C(=O)CCCc1c(Cc2ccc(O)cc2)[nH]c2ccccc12)C1CCC(CC2CCC(N)CC2)CC1 (centres undefined) is 349

The recorded Ki for NC1CCCC(NC(=O)N[C@H]2CC[C@H](N(Cc3ccccc3)C(=O)CCCc3c[nH]c4ccccc34)CC2)C1 (some centres undefined) is 31

* * *

target: Melanocortin receptor 4 (Homo sapiens); experiment: Displacement of [125I]NDP-MSH from human recombinant MC4 receptor expressed in Sf9 cells
Sequence (P32245 whole entry): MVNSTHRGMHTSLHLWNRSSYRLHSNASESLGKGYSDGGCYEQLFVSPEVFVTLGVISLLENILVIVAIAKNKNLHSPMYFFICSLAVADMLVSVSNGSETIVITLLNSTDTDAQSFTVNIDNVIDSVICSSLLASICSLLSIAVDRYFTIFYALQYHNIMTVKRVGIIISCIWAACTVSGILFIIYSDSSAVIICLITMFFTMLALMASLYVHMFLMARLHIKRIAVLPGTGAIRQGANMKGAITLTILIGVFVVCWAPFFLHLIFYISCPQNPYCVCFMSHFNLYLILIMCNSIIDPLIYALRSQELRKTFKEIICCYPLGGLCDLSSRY
Assignment: determine reported pKi for the given compounds.
The meaning of pKi here: minus log10 of the concentration in molar units.

The recorded pKi for NCCCCCN(Cc1ccccc1)C(=O)[C@H](N)Cc1ccc2ccccc2c1 is 4.89

The recorded pKi for NC1CCCC(N(Cc2ccccc2)C(=O)CCCc2c[nH]c3ccccc23)C1 (stereo not given) is 5.24

The recorded pKi for COc1cc(O)ccc1/C=C/CN(C(=O)CCCc1c[nH]c2ccccc12)C1CCC(CC2CCC(N)CC2)CC1 (stereo in doubt; form 1) is 5.19

The recorded pKi for NC1CCC(CC2CCC(N(C/C(Cl)=C/c3ccccc3)C(=O)COc3ccc4ccccc4c3)CC2)CC1 (stereo in doubt; form 6) is 5.30

The recorded pKi for NCCCCN(Cc1ccc2ccccc2c1)C(=O)c1c[nH]c2ccccc12 is 5.19

The recorded pKi for NCCN(C/C=C/c1ccccc1)C(=O)CCc1c[nH]c2ccccc12 is 3.97

The recorded pKi for CC1CC(CC2CCC(N(C/C(Cl)=C/c3ccccc3)C(=O)CCCc3c[nH]c4ccccc34)C(C)C2)CCC1N (stereo in doubt; form 2) is 5.51

The recorded pKi for NC1CCC(CC2CCC(N(C/C(Cl)=C/c3ccccc3)C(=O)COc3ccc4ccccc4c3)CC2)CC1 (stereo in doubt; form 1) is 5.33

The recorded pKi for NCCCCCN(C/C=C/c1ccccc1)C(=O)CCc1c[nH]c2ccccc12 is 5.09

The recorded pKi for C=C(Br)CN(C(=O)CCCc1c[nH]c2ccccc12)C1CCC(CC2CCC(N)CC2)CC1 (stereo in doubt; form 3) is 5.48

The recorded pKi for NCCCCCCN(C/C(Cl)=C/c1ccccc1)C(=O)CCCc1c[nH]c2ccccc12 is 5.42

The recorded pKi for N[C@H]1CC[C@H](NC(=O)NC2CCCC(N(Cc3ccccc3)C(=O)CCCc3c[nH]c4ccccc34)C2)CC1 (stereo not given in full) is 5.14

The recorded pKi for NCCN(C(=O)Cc1c[nH]c2ccccc12)C1CCc2ccccc2C1 (stereo not given) is 4.38

The recorded pKi for NC1CCC(CC2CCC(N(Cc3ccncc3)C(=O)CCCc3c[nH]c4ccccc34)CC2)CC1 (stereo in doubt; form 1) is 5.15

The recorded pKi for NCC1CCC(CN(C/C(Cl)=C/c2ccccc2)C(=O)CCCc2c[nH]c3ccccc23)CC1 (stereo not given) is 5.60

The recorded pKi for NCCN(C(=O)[C@H](N)Cc1ccc(Cl)cc1)C1CCC2(CCCCC2)CC1 is 5.62

The recorded pKi for NCCCCCCN(Cc1ccccc1)C(=O)CCCc1c[nH]c2ccccc12 is 5.47

The recorded pKi for CCCCCN(Cc1ccc(N(CC)CC)cc1)C(=O)CCCc1c[nH]c2ccccc12 is 4.11

The recorded pKi for COc1cc(Br)c(/C=C/CN(C(=O)CCCc2c(Cc3ccc(O)cc3)[nH]c3ccccc23)C2CCC(CC3CCC(N)CC3)CC2)cc1OC (stereo not given) is 5.89

The recorded pKi for NCCCCCCCN(Cc1ccccc1)C(=O)CCCc1c[nH]c2ccccc12 is 5.42

The recorded pKi for NC1CCC(CC2CCC(N(Cc3ccccc3Cl)C(=O)CCCc3c(Cc4ccc(O)cc4)[nH]c4ccccc34)CC2)CC1 (stereo not given) is 4.85

The recorded pKi for NCCCN(CCc1ccccc1)C(=O)CCCc1c[nH]c2ccccc12 is 3.79

The recorded pKi for NC1CCC(CC2CCC(N(CCc3c(F)cccc3Cl)C(=O)CCCc3c[nH]c4ccccc34)CC2)CC1 (stereo not given) is 5.64

The recorded pKi for N=C(N)NCCCCN(Cc1ccc2ccccc2c1)C(=O)CCCc1c[nH]c2ccccc12 is 4.02

The recorded pKi for Cc1ccccc1CN(C(=O)CCCc1c[nH]c2ccccc12)C1CCC(CC2CCC(N)CC2)CC1 (stereo not given) is 5.64

The recorded pKi for CCOc1cc(CN(C(=O)CCCc2c[nH]c3ccccc23)C2CCC(CC3CCC(N)CC3)CC2)ccc1OC (stereo not given) is 5.68

The recorded pKi for N[C@H]1CC[C@H](C[C@H]2CC[C@H](N(C/C(Cl)=C/c3ccccc3)C(=O)CCCc3c[nH]c4ccccc34)CC2)CC1 is 5.17

The recorded pKi for NC1CCC(CC2CCC(N(C/C(Cl)=C/c3ccccc3)C(=O)CCCc3c[nH]c4ccccc34)CC2)CC1 (stereo in doubt; form 2) is 5.70

The recorded pKi for NCCCCCN(Cc1ccccc1)C(=O)[C@@H](N)Cc1ccc2ccccc2c1 is 4.68

The recorded pKi for CC1CC(CC2CCC(N(Cc3ccccc3)C(=O)CCCc3c[nH]c4ccccc34)C(C)C2)CCC1N (stereo in doubt; form 5) is 5.68

The recorded pKi for NC(N)=NCCCN(Cc1ccc2ccccc2c1)C(=O)CCCc1c[nH]c2ccccc12 is 5.22

The recorded pKi for CC(c1ccc2ccccc2c1)N(CCN)C(=O)Cc1c[nH]c2ccccc12 (stereo not given) is 4.96

The recorded pKi for CC1CC(CC2CCC(N(Cc3ccccc3)C(=O)CCCc3c[nH]c4ccccc34)C(C)C2)CCC1N (stereo in doubt; form 3) is 5.43

The recorded pKi for NCCCCCN(C/C=C\c1ccccc1)C(=O)CCCc1c[nH]c2ccccc12 is 4.80

The recorded pKi for NCCCN(C(=O)c1cc2cc(OCc3ccccc3)ccc2[nH]1)C1CCc2ccccc2C1 (stereo not given) is 4.68
